FYI, the data here is from the supplement of paper PMC9112550.

- Tested on: Escherichia coli TOP10
- test-protocol: shrunken log2 fold change of peptide-encoding DNA abundance (4.5 h post-induction vs induction); higher = less antimicrobial activity (less host growth inhibition)
- condition-info: time post-induction: 4.5 h; library: site-saturation at positions 5, 18, 19, 20
Think of 0.05 as a floor: if shrunken log2 fold change stands on it or above, it is YES; beneath it, NO.

Q. shrunken log2 fold change >= 0.05 for "RRIRGRPPRLPRPRPRPHTQPRP" ?
A. NO

Q. shrunken log2 fold change >= 0.05 for "RRIRARPPRLPRPRPRPLKVPRP" ?
A. NO

Q. shrunken log2 fold change >= 0.05 for "RRIRQRPPRLPRPRPRPNAHPRP" ?
A. NO

Q. shrunken log2 fold change >= 0.05 for "RRIRKRPPRLPRPRPRPDSEPRP" ?
A. NO

Q. shrunken log2 fold change >= 0.05 for "RRIRGRPPRLPRPRPRPEGSPRP" ?
A. YES

Q. shrunken log2 fold change >= 0.05 for "RRIRVRPPRLPRPRPRPEESPRP" ?
A. YES

Q. shrunken log2 fold change >= 0.05 for "RRIRQRPPRLPRPRPRPGCMPRP" ?
A. YES

Q. shrunken log2 fold change >= 0.05 for "RRIRGRPPRLPRPRPRPNAQPRP" ?
A. YES

Q. shrunken log2 fold change >= 0.05 for "RRIRQRPPRLPRPRPRPDRGPRP" ?
A. NO

Q. shrunken log2 fold change >= 0.05 for "RRIRRRPPRLPRPRPRPFYCPRP" ?
A. NO

Q. shrunken log2 fold change >= 0.05 for "RRIRVRPPRLPRPRPRPFNSPRP" ?
A. NO

Q. shrunken log2 fold change >= 0.05 for "RRIRERPPRLPRPRPRPMPEPRP" ?
A. NO

Q. shrunken log2 fold change >= 0.05 for "RRIRIRPPRLPRPRPRPRVHPRP" ?
A. NO

Q. shrunken log2 fold change >= 0.05 for "RRIRKRPPRLPRPRPRPIGMPRP" ?
A. YES

Q. shrunken log2 fold change >= 0.05 for "RRIRQRPPRLPRPRPRPRGVPRP" ?
A. NO

* * *

- Tested on: Escherichia coli TOP10
- test-protocol: shrunken log2 fold change of peptide-encoding DNA abundance (4.5 h post-induction vs induction); higher = less antimicrobial activity (less host growth inhibition)
- condition-info: time post-induction: 4.5 h; library: site-saturation at positions 5, 18, 19, 20
Think of 0.02 as a floor: if shrunken log2 fold change stands on it or above, it is Y; beneath it, N.

Q. shrunken log2 fold change >= 0.02 for "RRIRSRPPRLPRPRPRPIGAPRP" ?
A. Y

Q. shrunken log2 fold change >= 0.02 for "RRIRWRPPRLPRPRPRPVRNPRP" ?
A. Y

Q. shrunken log2 fold change >= 0.02 for "RRIRMRPPRLPRPRPRPRVDPRP" ?
A. Y

Q. shrunken log2 fold change >= 0.02 for "RRIRKRPPRLPRPRPRPWTYPRP" ?
A. Y

Q. shrunken log2 fold change >= 0.02 for "RRIRSRPPRLPRPRPRPKGHPRP" ?
A. N

Q. shrunken log2 fold change >= 0.02 for "RRIRQRPPRLPRPRPRPETCPRP" ?
A. Y

Q. shrunken log2 fold change >= 0.02 for "RRIRDRPPRLPRPRPRPHNDPRP" ?
A. N

Q. shrunken log2 fold change >= 0.02 for "RRIRARPPRLPRPRPRPSAYPRP" ?
A. Y

Q. shrunken log2 fold change >= 0.02 for "RRIRWRPPRLPRPRPRPDSHPRP" ?
A. N

Q. shrunken log2 fold change >= 0.02 for "RRIRDRPPRLPRPRPRPPRPPRP" ?
A. Y

Q. shrunken log2 fold change >= 0.02 for "RRIRERPPRLPRPRPRPPTQPRP" ?
A. Y

Q. shrunken log2 fold change >= 0.02 for "RRIRPRPPRLPRPRPRPWAPPRP" ?
A. Y

Q. shrunken log2 fold change >= 0.02 for "RRIRWRPPRLPRPRPRPMAGPRP" ?
A. N

Q. shrunken log2 fold change >= 0.02 for "RRIRARPPRLPRPRPRPQQYPRP" ?
A. N

Q. shrunken log2 fold change >= 0.02 for "RRIRGRPPRLPRPRPRPREQPRP" ?
A. Y

* * *

- Tested on: Escherichia coli TOP10;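 further: peptides expressed intracellularly from a pBAD plasmid library in pooled LB shake-flask culture, induced with 0.3% L-arabinose, DNA abundance read by NGS, three biological replicates, DESeq2 with apeglm shrinkage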
- test-protocol: shrunken log2 fold change of peptide-encoding DNA abundance (4.5 h post-induction vs induction); higher = less antimicrobial activity (less host growth inhibition)
- condition-info: time post-induction: 4.5 h; library: site-saturation at positions 5, 18, 19, 20
Response field class: enum, chosen by comparing shrunken log2 fold change against LOW: < -0.2; MEDIUM: ≥ -0.2 and < 0.1; HIGH: ≥ 0.1

Q. Category of "RRIRDRPPRLPRPRPRPVWMPRP" , please.
A. MEDIUM

Q. Category of "RRIRQRPPRLPRPRPRPNPNPRP" , please.
A. MEDIUM

Q. Category of "RRIRARPPRLPRPRPRPRKVPRP" , please.
A. HIGH

Q. Category of "RRIRLRPPRLPRPRPRPCPGPRP" , please.
A. LOW

Q. Category of "RRIRFRPPRLPRPRPRPTFTPRP" , please.
A. MEDIUM

Q. Category of "RRIRHRPPRLPRPRPRPRECPRP" , please.
A. MEDIUM

Q. Category of "RRIRQRPPRLPRPRPRPQHIPRP" , please.
A. LOW

Q. Category of "RRIRQRPPRLPRPRPRPLLQPRP" , please.
A. HIGH

Q. Category of "RRIRNRPPRLPRPRPRPIVKPRP" , please.
A. LOW

Q. Category of "RRIRRRPPRLPRPRPRPQQSPRP" , please.
A. HIGH

Q. Category of "RRIRSRPPRLPRPRPRPSSWPRP" , please.
A. HIGH

Q. Category of "RRIRNRPPRLPRPRPRPRSKPRP" , please.
A. MEDIUM

Q. Category of "RRIRRRPPRLPRPRPRPHWQPRP" , please.
A. HIGH

Q. Category of "RRIRSRPPRLPRPRPRPGCQPRP" , please.
A. HIGH

Q. Category of "RRIRQRPPRLPRPRPRPLIAPRP" , please.
A. MEDIUM

Q. Category of "RRIRQRPPRLPRPRPRPGSHPRP" , please.
A. MEDIUM

Q. Category of "RRIRTRPPRLPRPRPRPGQWPRP" , please.
A. MEDIUM

Q. Category of "RRIRFRPPRLPRPRPRPHKYPRP" , please.
A. LOW

Q. Category of "RRIRNRPPRLPRPRPRPGTGPRP" , please.
A. MEDIUM

Q. Category of "RRIRKRPPRLPRPRPRPKSFPRP" , please.
A. MEDIUM

Q. Category of "RRIRQRPPRLPRPRPRPLRNPRP" , please.
A. HIGH

Q. Category of "RRIRERPPRLPRPRPRPQQYPRP" , please.
A. LOW

Q. Category of "RRIRQRPPRLPRPRPRPFAAPRP" , please.
A. HIGH

Q. Category of "RRIRMRPPRLPRPRPRPFMTPRP" , please.
A. MEDIUM

Q. Category of "RRIRTRPPRLPRPRPRPLRWPRP" , please.
A. HIGH

Q. Category of "RRIRVRPPRLPRPRPRPIYTPRP" , please.
A. LOW

Q. Category of "RRIRWRPPRLPRPRPRPCFIPRP" , please.
A. LOW

Q. Category of "RRIRCRPPRLPRPRPRPHFNPRP" , please.
A. LOW

Q. Category of "RRIRFRPPRLPRPRPRPFFVPRP" , please.
A. MEDIUM

Q. Category of "RRIRHRPPRLPRPRPRPMHGPRP" , please.
A. MEDIUM

Q. Category of "RRIRKRPPRLPRPRPRPMMKPRP" , please.
A. HIGH

Q. Category of "RRIRVRPPRLPRPRPRPYTMPRP" , please.
A. LOW

Q. Category of "RRIRNRPPRLPRPRPRPNIAPRP" , please.
A. LOW

Q. Category of "RRIRGRPPRLPRPRPRPRADPRP" , please.
A. HIGH

Q. Category of "RRIRMRPPRLPRPRPRPYLIPRP" , please.
A. LOW

Q. Category of "RRIRKRPPRLPRPRPRPQSVPRP" , please.
A. HIGH

Q. Category of "RRIRCRPPRLPRPRPRPGQPPRP" , please.
A. HIGH

Q. Category of "RRIRLRPPRLPRPRPRPLIMPRP" , please.
A. LOW

Q. Category of "RRIRYRPPRLPRPRPRPAEKPRP" , please.
A. MEDIUM

Q. Category of "RRIRYRPPRLPRPRPRPPEWPRP" , please.
A. MEDIUM

Q. Category of "RRIRPRPPRLPRPRPRPNTLPRP" , please.
A. LOW

Q. Category of "RRIRDRPPRLPRPRPRPYIIPRP" , please.
A. LOW

Q. Category of "RRIRMRPPRLPRPRPRPLTEPRP" , please.
A. HIGH

Q. Category of "RRIRDRPPRLPRPRPRPWVFPRP" , please.
A. HIGH

Q. Category of "RRIRHRPPRLPRPRPRPTYIPRP" , please.
A. LOW

Q. Category of "RRIRCRPPRLPRPRPRPGDCPRP" , please.
A. MEDIUM

Q. Category of "RRIRERPPRLPRPRPRPWWEPRP" , please.
A. MEDIUM

Q. Category of "RRIRCRPPRLPRPRPRPWGQPRP" , please.
A. MEDIUM

Q. Category of "RRIRRRPPRLPRPRPRPHTIPRP" , please.
A. HIGH

Q. Category of "RRIRPRPPRLPRPRPRPQVPPRP" , please.
A. MEDIUM

Q. Category of "RRIRWRPPRLPRPRPRPCGMPRP" , please.
A. HIGH

Q. Category of "RRIRMRPPRLPRPRPRPGTDPRP" , please.
A. HIGH

Q. Category of "RRIRMRPPRLPRPRPRPINTPRP" , please.
A. LOW

Q. Category of "RRIRTRPPRLPRPRPRPLIWPRP" , please.
A. HIGH

Q. Category of "RRIRMRPPRLPRPRPRPFDAPRP" , please.
A. HIGH

Q. Category of "RRIRNRPPRLPRPRPRPWICPRP" , please.
A. MEDIUM

Q. Category of "RRIRKRPPRLPRPRPRPVMHPRP" , please.
A. MEDIUM

Q. Category of "RRIRNRPPRLPRPRPRPWCFPRP" , please.
A. LOW

Q. Category of "RRIRHRPPRLPRPRPRPMINPRP" , please.
A. LOW

Q. Category of "RRIRSRPPRLPRPRPRPDLTPRP" , please.
A. MEDIUM

Q. Category of "RRIRWRPPRLPRPRPRPEGHPRP" , please.
A. HIGH

Q. Category of "RRIRQRPPRLPRPRPRPIVHPRP" , please.
A. LOW
